assay_target: T1, HLA-B*07:02 (human)
T1 construct: Peptide-receptive monomer in the UV-ligand exchange assay
assay_notes: UV peptide exchange, anti-b2m ELISA; exchange yield grade
readout_kind: peptide exchange yield

Before answering, review these 4 worked examples.
MPAFLSRASAL = ≥ 75%
NPELLVILL = 50 to 75%
SPIGLSLIL = ≥ 75%
MPANFETIGF = ≥ 75%

Query VPHHLLSSV yields peptide exchange yield of ≥ 75%

Query LPTRSLPAF yields peptide exchange yield of 50 to 75%

Query RPLILIRI yields peptide exchange yield of 20 to 50%

Query QPAPQPLL yields peptide exchange yield of 50 to 75%

Query RPWLSSPTGL yields peptide exchange yield of ≥ 75%

Query APSLARFLSL yields peptide exchange yield of ≥ 75%

Query RPSLPCRSF yields peptide exchange yield of 50 to 75%

Query MPWVLMSPF yields peptide exchange yield of ≥ 75%
